System: Plasmodium falciparum
PROTOCOL_NOTES: GSK_TCMDC: Inhibition of Plasmodium falciparum 3D7 in whole red blood cells, using parasite LDH activity as an index of growth. Test compounds present at 2uM
Assay type: functional
Inhibition listing for selected compounds.
OBSERVATION_TYPE: Inhibition (%)

SAMPLE_SMILES	TEST_RESULT
Nc1nccc2ccc(-c3ccc(Oc4ccccc4)cc3)cc12.O=C(O)C(F)(F)F	98
CC(C)(C)c1ccc(S(=O)(=O)Nc2ccccc2Cn2nc(N3CCNCC3)ccc2=O)cc1.O=C(O)C(F)(F)F	98
Cc1noc(C)c1-c1ccc2c(Nc3nccc4ccccc34)c(C(N)=O)cnc2c1	100
CN(Cc1ccc(-c2ccc(C(F)(F)F)cc2)cc1)C(=O)Cn1c(CCc2cccc(F)c2F)cc(=O)c2ccc(OCCCN3CCCCC3)cc21.O=C(O)C(O)C(O)C(=O)O	100
